B1: VH:VL chains; a variant is named by its letters at X, in order (parent)
chain 1: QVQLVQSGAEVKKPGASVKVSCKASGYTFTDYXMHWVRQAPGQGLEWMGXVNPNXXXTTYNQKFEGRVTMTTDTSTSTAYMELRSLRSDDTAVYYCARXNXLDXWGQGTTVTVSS
chain 2: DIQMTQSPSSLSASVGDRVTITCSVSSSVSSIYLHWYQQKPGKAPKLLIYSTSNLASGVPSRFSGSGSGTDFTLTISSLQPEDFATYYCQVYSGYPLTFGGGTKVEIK

variants of: B1; assay: yeast display scFab, FACS + sequencing; settings: with MET
The list shows a part of the results. The hit rate among all sequences tested is not known here.
Recorded Metric: antigen binding call

INSERT INTO assay_data (variant_notation, result) VALUES
  ('SEGRGAWY', 'binds'),
  ('VRAGDDVA', 'no binding'),
  ('YRAAGDVA', 'binds'),
  ('VRGGSDVA', 'no binding'),
  ('SEGRGDVY', 'no binding'),
  ('SAREGDAV', 'no binding'),
  ('YTAGSDVA', 'no binding'),
  ('VTGTGDGA', 'no binding'),
  ('YRAGDDVA', 'binds'),
  ('DRGRSDVA', 'no binding'),
  ('SAGEGDVF', 'no binding');
